test system: PfAP2-EXP AP2 domain (GST-tagged); assay: gcPBM binding intensity (ln(normalized median fluorescence intensity)); higher = stronger DNA binding
The full ranking holds about 25,000 sequences; the median of “ln(normalized median fluorescence intensity)” is about 8.6, and the highest 2% start at about 10. The sample holds the highest values, similar sequences and a random draw of the others, so the mix is not that of the screen.

Query Sequence | System Name | gcPBM binding intensity (ln)
TATATATATACTTAATGTACATATATATATATATAT [XGTACX_site3102] | PfAP2-EXP AP2 domain (GST-tagged) | 10.3
ATATTTACCACTGTATGTACATATATAAAATATATC [XGTACX_site6373] | PfAP2-EXP AP2 domain (GST-tagged) | 8.81
TATATATATATATAATGTACATAATAATAATACATC [XGTACX_site5587] | PfAP2-EXP AP2 domain (GST-tagged) | 9.84
TTTTTTTTTTTTTATTGTACATACTTTTAAATATAT [XGTACX_site4303] | PfAP2-EXP AP2 domain (GST-tagged) | 8.55
CATATAATATAATTATGTACATATATAATAATATAC [XGTACX_site5278] | PfAP2-EXP AP2 domain (GST-tagged) | 8.47
CATAAACTTTATAACACACACTTATAAATATAAATA [CACACA_site6646] | PfAP2-EXP AP2 domain (GST-tagged) | 8.41
GAACATACTCAAATAGCACACACATAAATAAAAATG [CACACA_site9283] | PfAP2-EXP AP2 domain (GST-tagged) | 8.89
ATATATATATATATATGTACATAATTAATAGCATAT [XGTACX_site1428] | PfAP2-EXP AP2 domain (GST-tagged) | 10.2
AAACTTTTTTTAAAAACACACATATATATTTATATA [CACACA_site4092] | PfAP2-EXP AP2 domain (GST-tagged) | 8.36
